# STUDY SYSTEM: human SSTR5 (Homo sapiens, UniProt P35346)
# Construct: expressed in transfected cells; host or cells: CHO (dhfr-) cells, strain SSTR5-32-4, plasmid pA1-11-SSTR5 (pAKKO-111 vector)
# Sequence (P35346 whole entry): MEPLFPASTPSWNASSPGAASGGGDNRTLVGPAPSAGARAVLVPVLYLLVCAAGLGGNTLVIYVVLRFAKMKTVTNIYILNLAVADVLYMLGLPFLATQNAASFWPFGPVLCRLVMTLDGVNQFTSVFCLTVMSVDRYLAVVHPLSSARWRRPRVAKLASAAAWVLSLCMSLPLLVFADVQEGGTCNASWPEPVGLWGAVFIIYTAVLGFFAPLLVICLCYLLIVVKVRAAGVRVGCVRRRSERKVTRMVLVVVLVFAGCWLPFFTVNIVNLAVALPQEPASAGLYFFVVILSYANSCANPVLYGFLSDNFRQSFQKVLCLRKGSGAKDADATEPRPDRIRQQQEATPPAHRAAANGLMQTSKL
# METHOD SUMMARY: Binding inhibition of 125I-somatostatin-14, SSTR5 membrane fraction
# COND: 125I-somatostatin-14 binding, CHO membrane fraction, 25° C. 60 minutes, Hill plots
Kindly state IC50 for each of the entries shown.

IC50 measured on CC(c1c[nH]c2ccccc12)C(NC(=O)N1CCC(Oc2ccc(O)cc2)CC1)C(=O)N1C[C@@H](CN(C)C)Cc2cc(Cl)ccc21 (single isomer, unassigned; (-)) [Example 141] = 10 nM

C[C@@H](c1c[nH]c2ccccc12)[C@@H](NC(=O)N1CCN(C(=O)c2ccccc2)CC1)C(=O)N1C[C@@H](CN(C)C)Cc2cc(Cl)ccc21 [Example 157] has a reported IC50 of 5 nM

Item: C[C@@H](c1c[nH]c2ccccc12)[C@@H](NC(=O)N1CCC(Oc2ccccc2)CC1)C(=O)N1C[C@@H](CN(C)C)Cc2cc(Cl)ccc21 [Example 42] | IC50: 40 nM

C[C@@H](c1c[nH]c2ccccc12)[C@@H](NC(=O)N1CCC(Oc2ccc(F)cc2)CC1)C(=O)N1C[C@@H](CN(C)C)Cc2cc(Cl)ccc21 [Example 153] yielded IC50 of 40 nM

The molecule identified as C[C@@H](c1c[nH]c2ccccc12)[C@@H](NC(=O)C1CCN(C(=O)c2cc3ccccc3n2C)CC1)C(=O)N1C[C@@H](CN(C)C)Cc2cc(Cl)ccc21 [Example 6] registered its IC50 at 60 nM

---

I'd appreciate it if you could supply log10 of IC50 values for the items below.
# STUDY SYSTEM: human SSTR3 (Homo sapiens, UniProt P32745)
# Construct: expressed in transfected cells; host or cells: CHO (dhfr-) cells, strain SSTR3-15-19, plasmid pA1-11-SSTR3 (pAKKO-111 vector)
# Sequence (P32745 whole entry): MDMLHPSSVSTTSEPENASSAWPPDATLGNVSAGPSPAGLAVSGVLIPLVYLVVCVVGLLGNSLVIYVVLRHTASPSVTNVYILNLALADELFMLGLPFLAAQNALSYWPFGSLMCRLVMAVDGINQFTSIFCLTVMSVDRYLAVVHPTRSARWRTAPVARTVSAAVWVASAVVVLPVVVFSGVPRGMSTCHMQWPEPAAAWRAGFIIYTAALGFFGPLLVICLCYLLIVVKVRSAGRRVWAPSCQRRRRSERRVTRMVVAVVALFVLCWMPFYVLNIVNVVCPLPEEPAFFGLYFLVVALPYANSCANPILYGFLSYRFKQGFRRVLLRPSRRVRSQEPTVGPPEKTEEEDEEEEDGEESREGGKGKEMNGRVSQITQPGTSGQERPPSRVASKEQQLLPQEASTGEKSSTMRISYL
# METHOD SUMMARY: Binding inhibition of 125I-somatostatin-14, SSTR3 membrane fraction
# COND: 125I-somatostatin-14 binding, CHO membrane fraction, 25° C. 60 minutes, Hill plots
Could you please treat all values as log10 of IC50 in nM?

Given item C[C@@H](c1c[nH]c2ccccc12)[C@@H](NC(=O)N1CCC(Oc2ccccc2)CC1)C(=O)N1C[C@@H](CN(C)C)Cc2cc(Cl)ccc21 [Example 42] , the value recorded as its log10 of IC50 is 0.78

Please fill in: log10 of IC50 reported for C[C@@H](c1c[nH]c2ccccc12)[C@@H](NC(=O)N1CCC(Oc2ccc(F)cc2)CC1)C(=O)N1C[C@@H](CN(C)C)Cc2cc(Cl)ccc21 [Example 153] = 1.00

Reported log10 of IC50 of CC(c1c[nH]c2ccccc12)C(NC(=O)N1CCC(Oc2ccc(O)cc2)CC1)C(=O)N1C[C@@H](CN(C)C)Cc2cc(Cl)ccc21 (single isomer, unassigned; (-)) [Example 141] : 0.48

Form: compound = C[C@@H](c1c[nH]c2ccccc12)[C@@H](NC(=O)C1CCN(C(=O)c2cc3ccccc3n2C)CC1)C(=O)N1C[C@@H](CN(C)C)Cc2cc(Cl)ccc21 [Example 6] ; log10 of IC50 = 1.48

Kindly note the recorded log10 of IC50 for C[C@@H](c1c[nH]c2ccccc12)[C@@H](NC(=O)N1CCN(C(=O)c2ccccc2)CC1)C(=O)N1C[C@@H](CN(C)C)Cc2cc(Cl)ccc21 [Example 157] , which is 0.00

Just for reference, patent US20050245571A1 is where these values come from.
